Test: NCI Yeast Anticancer Drug Screen. Data for the cln2 rad14 strain (AID 165)
Conditions: S. cerevisiae cln2 rad14 strain, at 50.0 µM (retest, dose inferred, filed as 5.0)
Procedure: Growth inhibition of yeast strains with defined genetic alterations is measured as a screen for potential anti-cancer activity. Selected strains with alterations in DNA damage repair or cell cycle control were exposed to compounds and growth inhibition was measured relative to vehicle treated controls. The strain used in this assay is cln2 rad14
Compounds without any hit were thinned out: in the full panel of roughly 79,000, 15% have a hit. Calls of active or inactive are those of the source. Rule as the data show it: active = growth inhibition above about 70%; inactive = the rest.
Entry note: the call must match one of YES = active, NO = inactive

[ask] Call for entry Nc1ccc(-c2nc3ccccc3s2)cc1 :
[reply] YES

[ask] Call for entry c1ccc([B-](c2ccccc2)(c2ccccc2)c2ccccc2)cc1 :
[reply] NO

[ask] Call for entry O=c1oc2ccccc2c(O)c1/C=N/C(=S)NCc1ccccc1 :
[reply] NO

[ask] Call for entry Clc1ccccc1/C=C/c1ccnc2ccccc12 :
[reply] YES

[ask] Call for entry CN(C)C(=S)/N=c1\ss/c(=N\S(=O)(=O)c2ccccc2)n1-c1ccccc1 :
[reply] NO

[ask] Call for entry [Cl][Sn]([CH2][CH2][Sn]([Cl])([c]1ccccc1)[c]1ccccc1)([c]1ccccc1)[c]1ccccc1 :
[reply] YES

[ask] Call for entry BrCC1(CBr)COC1 :
[reply] NO

[ask] Call for entry COC(=O)c1ccccc1CC1Cc2cccc(C)c2C1=O (configuration not stated) :
[reply] NO

[ask] Call for entry O=c1cccccc1[O-].O=c1cccccc1[O-].O=c1cccccc1[O-].[Ce+3] :
[reply] NO

[ask] Call for entry Cc1cccc2ccc3cc(CC(=O)O)c4cccc(C)c4c3c12 :
[reply] YES

[ask] Call for entry CCCCCCCCCCCCCC(=O)CC(=O)c1c(O)cccc1O :
[reply] NO

[ask] Call for entry CC1=CC(=O)C(O)=C/C1=C\C=C\c1ccccc1 :
[reply] YES

[ask] Call for entry Cc1ccc(NC(=S)SCc2ccco2)cc1Cl :
[reply] YES

[ask] Call for entry CS/C(=N\N=C(/C)c1ccccn1)N1CCN(c2ccccn2)CC1 :
[reply] YES

[ask] Call for entry Oc1cc(F)ccc1-c1ccc(F)cc1 :
[reply] YES

[ask] Call for entry CNc1ccc(N=O)cc1 :
[reply] YES

[ask] Call for entry O=C1c2ccccc2C(=O)[C@@]23O[C@@]12C1(Oc2cccc4cccc(c24)O1)[C@@H]1O[C@@H]1[C@@H]3O :
[reply] YES

[ask] Call for entry [N-]=[N+]=NC1=CC(=O)c2cccc3cccc1c23 :
[reply] YES

[ask] Call for entry O=S1(=O)c2ccccc2C(=NO)c2ccccc21 :
[reply] NO

[ask] Call for entry COc1ccc2c(c1)c(=O)c1c(NCCN(C)C)ccc3nnn2c31 :
[reply] NO

[ask] Call for entry FC(F)(F)c1ccccc1NC(=S)SCc1ccc2c(c1)OCO2 :
[reply] YES

[ask] Call for entry CC(C)C1=C(O)C2=C(C(=O)C1=O)C1(C)CCCC(C)(C)C1C(O)C2OC=O (configuration not stated) :
[reply] YES

[ask] Call for entry CC(=O)C(C(C)=O)C1C=CC=CC=C1 :
[reply] YES

[ask] Call for entry Nc1c(-c2ccc(Cl)cc2)[n+]([O-])c2ccccc2[n+]1[O-] :
[reply] NO

[ask] Call for entry Cc1ccsc1/C=N/Nc1cc(C)c2cccc(C)c2n1 :
[reply] NO

[ask] Call for entry Cc1cc2c(=O)[nH]c(N)nc2nc1C :
[reply] NO

[ask] Call for entry COc1cccc(/C=C2\CCCc3ccccc3C2=O)c1 :
[reply] NO

[ask] Call for entry N#CC1(C#N)C(C#N)(C#N)C12CCC2 :
[reply] NO

[ask] Call for entry C=CC(c1ccccc1)[C@@]1(OC(C)=O)C(=O)C(=O)OC1C1COC(C)(C)O1 (some centres not stated) :
[reply] YES

[ask] Call for entry Clc1cccc(C2SCc3nc4ccccc4n32)c1Cl (configuration not stated) :
[reply] YES

[ask] Call for entry CCC(Cl)COP(=O)(OCC(Cl)CC)OC(c1ccc(Cl)c(Cl)c1)P(=O)(OCC(Cl)CC)OCC(Cl)CC (configuration not stated) :
[reply] NO

[ask] Call for entry CCOC(=O)C1=NNC(C(=O)c2ccccc2)C1c1ccccc1 (configuration not stated) :
[reply] NO

Hello, the source for this data is PubChem BioAssay (NCI), in case you need it.
